This collection of values is drawn from paper PMC10980656.

Experimental Protocol: clinical
Study Conditions: both, human, in vivo, iv, 30 mg, AUC0–tz (geoMean), plasma, single IV 30 mg fasudil over 30 min
Counter-ions that a name gives are not always drawn.
Parameter: AUC(0-t) (ng·h/mL)

A. O=S(=O)(c1cccc2cnccc12)N1CCCNCC1 [fasudil, fasudil hydrochloride, reference compound]
B. O=S(=O)(c1cccc2c(O)nccc12)N1CCCNCC1 [hydroxyfasudil]
Query: Of the two listed items, which has the higher AUC(0-t)? First: A Second: B Refer to your chosen entry by its label in the reply.
Response: B

---

Experimental Protocol: clinical
Study Conditions: both, human, in vivo, po, 30 mg
Parameter: half-life (h)
Write the value in h as a bare number.

Query: Returns the measured half-life for the input compound. Input: O=S(=O)(c1cccc2c(O)nccc12)N1CCCNCC1 [hydroxyfasudil]
Response: 5.54
